System: SF-539 CNS
Assay info: NCI-60 one-dose screen, 48 h (100 = growth as untreated, 0 = no growth, -100 = all killed)
Recorded conditions: 10 µM
Compounds without any hit were thinned out: in the full panel of roughly 83,000, 20% have a hit.
Known growth of a selection of compounds
Just the number please, in %, no unit attached.

Previously resolved entries follow.
• C/C(=C\CSc1ccccc1C(=O)O)CCCC(C)CCCC(C)CCCC(C)C (stereo unspecified) = 61.1
• Cc1ccc(NC(=O)NCn2c(=O)[nH]c3ccccc3c2=O)cc1 = 58.2
• COc1ccc2[nH]c(O)c(N=NC(=O)COc3ccc(NC(=O)Nc4ccc(Cl)c(Cl)c4)cc3)c2c1 = -97.5
• COc1ccc(/C=C/C(=O)c2ccc(NC(=O)CN3C(=O)NC(C)(c4ccccc4)C3=O)cc2)cc1 (stereo unspecified) = 80

Q: Would you mind telling me what growth value was observed for `CC1=C2C(=C[C@@](C)(COCOCCCl)[C@@H]2O)C(=O)[C@](C)(O)C12CC2` ?
A: -65

Q: And for `C=C(C)[C@@H]1CC[C@]2(C(=O)OC)CC[C@]3(C)[C@H](CC[C@@H]4[C@@]5(C)CC[C@H](N)C(C)(C)[C@@H]5CC[C@]43C)[C@@H]12` ?
A: -99.8

---

System: MDA-MB-468 breast
Assay info: NCI-60 one-dose screen, 48 h (100 = growth as untreated, 0 = no growth, -100 = all killed)
Recorded conditions: 10 µM
This is part of a sample that, as a whole, favours compounds with a hit. Of some 83,000 tested, about 20% had one in any assay.
Measurement name: growth (%)
A number alone suffices; assume %.

- O=C(c1ccccc1)n1ccc(-c2cc3cc(Br)ccc3oc2=O)n1: -25.9

Q: Bench note: what growth did O=C1CCC(N2Cc3c(NCc4ccc(-c5ccccc5)cc4)cccc3C2=O)C(=O)N1 (configuration not stated) show?
A: -12.6

Q: What do you have for `O=c1[nH]c2ccc(Cl)cc2cc1CSc1ccc(Nc2nccc(-c3ccc(Cl)cc3)n2)cc1` ?
A: -20.1

Q: And for `Cc1ccc(C(C)C)cc1NC(=O)c1ccccc1O` ?
A: 40

Q: Try `N#Cc1c(NC(=O)c2ccc(C(F)(F)F)cc2)sc2c1CCC(=O)C2` next.
A: -71

Q: Now this one: `N#Cc1c(NC(=O)c2ccc(C(F)(F)F)cc2)sc2c1CCC(O)=C2`
A: -31.9

Q: Also `CN1CCc2c(sc3ncnc(N/N=C/c4ccc5ccccc5c4)c23)C1` , if possible.
A: 42

Q: Likewise for COc1ccc(C2N(c3ccc(Br)cc3)N=C(C(C)=O)N2[C@H]2[C@H](OC(C)=O)O[C@H](COC(C)=O)[C@@H](OC(C)=O)[C@@H]2OC(C)=O)cc1 (some centres not stated) ?
A: 72.6

Q: What do you get for `O=C(Nc1ccc(I)cc1F)c1cc(-c2ccc(F)cc2F)ccc1O` ?
A: -26.8

Q: Repeat with `CC(=O)Nc1nc(-c2ccc(N3CCN(C)CC3)c(NS(=O)(=O)c3ccc(C(F)(F)F)cc3)c2)cs1`
A: -29.3

Q: Field entry: `C/C(=N\N=C\c1ccc(N(C)C)cc1)c1ccc2c(c1)Nc1ccccc1S2`
A: 8.43

---

# maps each entry to its growth
System: MDA-MB-435 melanoma
Assay info: NCI-60 one-dose screen, 48 h (100 = growth as untreated, 0 = no growth, -100 = all killed)
Recorded conditions: 10 µM
Experimental: Growth inhibition of the MDA-MB-435 human Melanoma tumor cell line is measured as a screen for anti-cancer activity. Cells are grown in 96 well plates and exposed to the test compound for 48 hours. Compounds are tested at a single concentration, which is 10^-5 M for most compounds. The reported endpoint is percent growth (GI% or GIPRCNT), where numbers from 0 - 100% represent growth inhibition, and numbers from -100% - 0 represent cell death. […]
This is part of a sample that, as a whole, favours compounds with a hit. Of some 83,000 tested, about 20% had one in any assay. The source made the active and inactive calls. Rule for the calls: active = growth percent below 10; inactive = the rest.

The following compounds have reported results that may help.
- O=C(c1ccc(Cl)cc1)C1[C@H](c2ccc(Br)cc2)[C@@H](c2ccccc2)NC12C(=O)Nc1ccccc12 (some centres undefined): -46.5% (active)
- CC1(C)CC[C@]2(C(=O)O)CC[C@]3(C)C(=CC[C@@H]4[C@@]5(C)C/C(=C/c6ccncc6)[C@H](O)C(C)(C)[C@@H]5CC[C@]43C)[C@@H]2C1: 54.8% (inactive)
- Nc1nc(Nc2ccc(Cl)cc2)n(Cc2cccc(Br)c2)n1: -64.9% (active)

Now consider a different compound.
Q: Give the reported growth for `CC(=O)c1cc(C(=O)c2ccc3c(c2)NC(=O)CO3)n2ccc3ccccc3c12` (system: MDA-MB-435 melanoma).
A: 80.5% (inactive)
